Counter-ions that a name gives are not always drawn.
Outcome Measure: melting point

>  <Compound>
O=C(NCCC1CCCCC1)c1c(Cl)ccc2nc(N3CCC(C(=O)O)CC3)ccc12

>  <Measurement>
253 to 256 °C

$$$$
>  <Compound>
O=C(CC1CCCCC1)Nc1c(Cl)ccc2nc(N3C[C@@H]4C[C@H]3CN4)ccc12 (as salt: acetate)

>  <Measurement>
120 °C (dec.)

$$$$
>  <Compound>
Cc1ccc2nc(N3CC[C@H](N)C3)ccc2c1C(=O)NCC1CCCCC1 (as salt: acetate)

>  <Measurement>
154 to 155 °C

$$$$
>  <Compound>
N[C@H]1CCN(c2ccc3c(NC(=O)CCC4CCCC4)c(Cl)ccc3n2)C1

>  <Measurement>
192 to 194 °C

$$$$
>  <Compound>
O=C(O)CC1CCN(c2ccc3c(NC(=O)CC4CCCCC4)c(Cl)ccc3n2)CC1

>  <Measurement>
242 to 244 °C

$$$$
>  <Compound>
CS(=O)(=O)NC(=O)N[C@H]1CCN(c2ccc3c(NC(=O)CC4CCCCC4)c(Cl)ccc3n2)C1

>  <Measurement>
303 to 307 °C

$$$$
>  <Compound>
O=C(O)CN[C@H]1CCN(c2ccc3c(NC(=O)CC4CCCCC4)c(Cl)ccc3n2)C1

>  <Measurement>
257 to 259 °C

$$$$
>  <Compound>
Cc1ccc2nc(N3CC[C@H](NCCO)C3)ccc2c1NC(=O)CC1CCCCC1

>  <Measurement>
204 to 207 °C

$$$$
>  <Compound>
O=C(CC1CCCCC1)Nc1c(Cl)ccc2nc(N3CC[C@H](OCCc4nnn[nH]4)C3)ccc12

>  <Measurement>
177 to 181 °C

$$$$
>  <Compound>
CNCCCN(C)c1ccc2c(NC(=O)CC3CCC(C(F)(F)F)CC3)c(Cl)ccc2n1 (stereo not shown) (as salt: hydrochloride)

>  <Measurement>
250 °C (dec.)

$$$$
>  <Compound>
O=C(O)CN1CCN(c2ccc3c(NC(=O)CC4CCCCC4)c(Cl)ccc3n2)CC1 (as salt: salt)

>  <Measurement>
320 to 326 °C

$$$$
>  <Compound>
O=C(CC1CCCCC1)Nc1c(Cl)ccc2nc(N3CCC(c4noc(=O)[nH]4)CC3)ccc12

>  <Measurement>
233 to 235 °C

$$$$
>  <Compound>
CC(C)(C)OC(=O)N(CCO)[C@H]1CCN(c2ccc3c(NC(=O)CC4CCCCC4)c(Cl)ccc3n2)C1

>  <Measurement>
115 to 120 °C

$$$$
>  <Compound>
N[C@@H]1CCN(c2ccc3c(NC(=O)CC4CCCCC4)c(Cl)ccc3n2)C1

>  <Measurement>
201 to 206 °C

$$$$
>  <Compound>
O=C(NCC1CCCCC1)c1c(Cl)ccc2nc(N3CCC(c4nnn[nH]4)CC3)ccc12

>  <Measurement>
255 to 257 °C

$$$$
>  <Compound>
N#CC1CCN(c2ccc3c(NC(=O)CC4CCCCC4)c(Cl)ccc3n2)CC1

>  <Measurement>
235 to 237 °C

$$$$
